Overview of recorded GI50 for various compounds
- Test system: MCF-7
- assay procedure: MTT assay, MCF-7 breast cancer cells
- Assay type: cell-based
- cond: Homo sapiens, MCF7, 72 h, mean of three independent experiments ± SEM
parameter: GI50

In [3]: df
Out[3]:
                                   compound  system_name    value
0  Nc1nc(Nc2ccc(OC(F)(F)F)cc2)nc(-c2cccc(F)c2)n1 [Compound 19]        MCF-7  18.2 µM
1  COc1ccc(-c2nc(N)nc(Nc3ccccc3OC)n2)cc1 [Compound 78]        MCF-7  > 20 µM
2  Nc1nc(Nc2ccc(F)cc2)nc(-c2ccc(Cl)cc2)n1 [Compound 36]        MCF-7  > 20 µM
3  CN(C)c1ccc(-c2nc(N)nc(Nc3ccccc3F)n2)cc1 [Compound 101]        MCF-7  > 20 µM
4  COc1ccc(-c2nc(N)nc(Nc3ccccc3F)n2)cc1 [Compound 70]        MCF-7  > 20 µM
